Target: T1, human PTH1R overexpressed on CHO cells (human, UniProt Q03431 27-593)
T1 sequence (looked up): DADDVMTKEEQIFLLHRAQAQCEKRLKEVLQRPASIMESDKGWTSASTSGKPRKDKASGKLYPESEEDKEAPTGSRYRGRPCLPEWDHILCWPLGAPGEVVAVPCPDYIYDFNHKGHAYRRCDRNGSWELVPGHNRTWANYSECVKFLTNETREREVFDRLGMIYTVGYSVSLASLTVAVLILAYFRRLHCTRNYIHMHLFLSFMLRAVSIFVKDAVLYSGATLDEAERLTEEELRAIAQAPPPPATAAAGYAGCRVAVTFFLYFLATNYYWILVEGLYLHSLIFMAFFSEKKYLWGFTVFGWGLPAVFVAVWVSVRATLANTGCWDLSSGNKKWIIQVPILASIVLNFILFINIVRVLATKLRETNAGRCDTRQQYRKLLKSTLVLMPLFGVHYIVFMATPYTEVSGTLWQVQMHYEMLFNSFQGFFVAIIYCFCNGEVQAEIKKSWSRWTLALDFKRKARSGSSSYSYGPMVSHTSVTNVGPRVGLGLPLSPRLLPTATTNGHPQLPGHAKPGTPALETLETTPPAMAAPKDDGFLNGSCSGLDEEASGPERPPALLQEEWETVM
Assay: cell-based or functional assay
IC50, inhibition of PTHrP(1-34)-induced cAMP accumulation reference
Give just the numeric value; nM need not be written.

binder: XPA.85.328 (antibody, V domains shown, IgG; also called Ab328) VH: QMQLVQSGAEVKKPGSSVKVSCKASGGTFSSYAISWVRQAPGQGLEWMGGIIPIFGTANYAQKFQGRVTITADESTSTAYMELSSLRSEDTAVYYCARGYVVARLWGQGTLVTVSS VL: DVVMTQTPLSLSVTPGQPASISCKSSQSLLHIDGKTYLYWYLQKSGQSPQLLIYEVSNRFSGVPDTFSGSGSGTDFTLKISRVEAEDVGVYYCMQSLHFPITFGQGTRLEIK
endpoint.value: 7.06
--
binder: XPA.85.345 (antibody, V domains shown, Light-chain-shuffled variant of XPA.85.012) VH: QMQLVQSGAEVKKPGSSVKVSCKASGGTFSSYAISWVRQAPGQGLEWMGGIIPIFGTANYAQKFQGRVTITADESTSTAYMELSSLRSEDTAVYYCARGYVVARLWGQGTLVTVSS VL: ETTLTQSPAFMSASVGDRVTITCQASQDINNFLNWYQQKPGKAPKFLIYDASNLEKGVPSRFSGRGSGTEFTLTISSLQPEDIATYYCQQYRDFPLTFGQGTRLEIK
endpoint.value: 12.1

Now for another entry.
Query: Which value of IC50, inhibition of PTHrP(1-34)-induced cAMP accumulation has been reported for XPA.85.331 (antibody, V domains shown, Light-chain-shuffled variant of XPA.85.012) VH: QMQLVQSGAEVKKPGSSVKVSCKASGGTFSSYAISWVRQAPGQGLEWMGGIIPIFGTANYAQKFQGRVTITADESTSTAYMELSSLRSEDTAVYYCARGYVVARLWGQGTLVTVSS VL: DVVMTQSPLSLPVTPGEPASISCRSSQSLLHIDGFNYLQWYLQKPGQSPQLLVHLGSFRASGVPDRFSGSGSGTDFTLEISRVEAEDVGLYYCMQGLQTPPTFGPGTKVEIK in the records?
Response: 8.86
